Biological target: Hemagglutinin (Influenza A virus (strain A/X-31 H3N2)) (UniProt P03438)
Sequence (P03438 whole entry): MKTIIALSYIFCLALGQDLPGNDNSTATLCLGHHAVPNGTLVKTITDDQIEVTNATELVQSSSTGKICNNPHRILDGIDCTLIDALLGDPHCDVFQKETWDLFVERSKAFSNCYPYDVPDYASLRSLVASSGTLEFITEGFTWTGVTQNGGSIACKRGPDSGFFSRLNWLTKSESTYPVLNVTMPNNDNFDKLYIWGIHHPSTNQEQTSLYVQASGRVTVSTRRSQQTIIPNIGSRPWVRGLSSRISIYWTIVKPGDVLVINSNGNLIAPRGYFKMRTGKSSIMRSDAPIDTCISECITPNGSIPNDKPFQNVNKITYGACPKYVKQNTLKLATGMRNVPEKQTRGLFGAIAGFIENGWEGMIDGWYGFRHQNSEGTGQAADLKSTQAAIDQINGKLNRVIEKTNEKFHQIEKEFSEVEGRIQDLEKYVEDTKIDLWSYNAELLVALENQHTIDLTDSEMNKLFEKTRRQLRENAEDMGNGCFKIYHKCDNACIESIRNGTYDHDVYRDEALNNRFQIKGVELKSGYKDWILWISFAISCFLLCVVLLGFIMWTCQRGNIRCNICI
Assay: Inhibition of influenza A, strain X-31, induced hemagglutinination of chicken erythrocytes
Type: functional
Details: Influenza A virus (A/X-31(H3N2))
observed property: Relative affinity

>>> observed("CC(=O)NC1C(O)CC(OCCCCC(=O)NCc2ccccc2)(C(=O)O)OC1[C@H](O)[C@H](O)CO (stereo partly drawn)")
8
>>> observed("CC(=O)NC1C(O)CC(OCCCCCCC(=O)NCc2cccc3ccccc23)(C(=O)O)OC1[C@H](O)[C@H](O)CO (stereo partly drawn)")
64
>>> observed("CC(=O)NC1C(O)CC(OCCCCCCCCC(=O)NCc2cccc3ccccc23)(C(=O)O)OC1[C@H](O)[C@H](O)CO (stereo partly drawn)")
16
>>> observed("CC(=O)NC1C(O)CC(OCCCCC(=O)NCc2cccc(C(=O)O)c2)(C(=O)O)OC1[C@H](O)[C@H](O)CO (stereo partly drawn)")
16
>>> observed("CC(=O)NC1C(O)CC(OCCC(=O)NCc2cccc3ccccc23)(C(=O)O)OC1[C@H](O)[C@H](O)CO (stereo partly drawn)")
8
>>> observed("CC(=O)NC1C(O)CC(OCCCCCCC(=O)NCc2ccccc2)(C(=O)O)OC1[C@H](O)[C@H](O)CO (stereo partly drawn)")
16
>>> observed("CC(=O)NC1C(O)CC(OCCCCC(=O)NCc2cc3ccccc3c3ccccc23)(C(=O)O)OC1[C@H](O)[C@H](O)CO (stereo partly drawn)")
32

---

Target: Hemagglutinin (Influenza A virus (strain A/X-31 H3N2))
Assay: Inhibition of influenza A, strain X-31, induced hemagglutinination of chicken erythrocytes
Assay type: functional
Conditions: Influenza A virus (A/X-31(H3N2))
Overview of recorded Relative affinity for various compounds
observed property: Relative affinity

>>> observed("CC(=O)NC1C(O)CC(OCCCCC(=O)NCc2cccc3ccccc23)(C(=O)O)OC1[C@H](O)[C@H](O)CO (stereo partly specified)")
32
>>> observed("CC(=O)NC1C(O)CC(OCCCCC(=O)NCc2ccc3ncccc3c2)(C(=O)O)OC1[C@H](O)[C@H](O)CO (stereo partly specified)")
8
>>> observed("CC(=O)NC1C(O)CC(OCCCCCCC(=O)NCc2cc3ccccc3c3ccccc23)(C(=O)O)OC1[C@H](O)[C@H](O)CO (stereo partly specified)")
64
>>> observed("CNC(=O)CCCCOC1(C(=O)O)CC(O)C(NC(C)=O)C([C@H](O)[C@H](O)CO)O1 (stereo partly specified)")
1
>>> observed("CC(=O)NC1C(O)CC(OCCCCC(=O)NCCNC(=O)OCc2ccccc2)(C(=O)O)OC1[C@H](O)[C@H](O)CO (stereo partly specified)")
4
>>> observed("CC(=O)NC1C(O)CC(OCCCCC(=O)NNS(=O)(=O)c2cccc3c(N(C)C)cccc23)(C(=O)O)OC1[C@H](O)[C@H](O)CO (stereo partly specified)")
4
